system: MCF10A; test: one-nucleolus phenotype percent effect (relative to siNT 0% and siNOL11 100%); higher = more cells with one nucleolus (ribosome biogenesis inhibition); settings: 20 nM; 72 h
# Lookup of reported one-nucleolus phenotype percent effect keyed by entry
The figure you give is taken to be in %; do not add the unit.

Here's what some known entries look like.
item_sequence	measured_on	one-nucleolus phenotype percent effect / %
GGUCGUAUGUGUGACGCCAUUU [hsa-miR-489-5p]	MCF10A	-3.74
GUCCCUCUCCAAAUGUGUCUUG [hsa-miR-642a-5p]	MCF10A	-27.9
GAGGGUUGGGUGGAGGCUCUCC [hsa-miR-296-3p]	MCF10A	20.8
UGCUGGAUCAGUGGUUCGAGUC [hsa-miR-1287]	MCF10A	64.1

[ask] Sample ACUGUAGUAUGGGCACUUCCAG [hsa-miR-20b-3p] — what was its one-nucleolus phenotype percent effect?
[reply] 1.32

[ask] Sample UAUGGGGCUUCUGUAGAGAUUUC [hsa-miR-3675-5p] — what was its one-nucleolus phenotype percent effect?
[reply] 22.6

* * *

# Lookup of reported one-nucleolus phenotype percent effect keyed by entry
tested on: MCF10A; assay: one-nucleolus phenotype percent effect, hitpick validation (relative to siNT 0% and siNOL11 100%); higher = more cells with one nucleolus; conditions: 20 nM; 72 h
The figure you give is taken to be in %; do not add the unit.

Here's what some known entries look like.
item_sequence	reading
UUGCACUUGUCUCAGUGA [hsa-miR-4325]	84.2
UCAUAGCCCUGUACAAUGCUGCU [hsa-miR-103b]	144

[ask] Tell me reported one-nucleolus phenotype percent effect for CAUCUGGCAUCCGUCACACAGA [hsa-miR-3126-3p] , tested with MCF10A.
[reply] 105

* * *

test system: MCF10A; assay: percent viability (nuclei count relative to siNT); higher = more viable cells; details: 20 nM; 72 h
# Lookup of reported percent viability keyed by entry
The figure you give is taken to be in %; do not add the unit.

Here's what some known entries look like.
item_sequence	unit_descriptor	percent viability
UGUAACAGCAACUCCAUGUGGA [hsa-miR-194-5p]	%	84.3
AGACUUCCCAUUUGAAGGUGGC [hsa-miR-617]	%	43.8
UCUCCCUUGAGGGCACUUU [hsa-miR-4287]	%	66
AGCUCGGUCUGAGGCCCCUCAGU [hsa-miR-423-3p]	%	56.6
AAAAGUAAUCGCGGUUUUUGUC [hsa-miR-548h-5p]	%	101

Here is the next item to consider.
[ask] Tell me reported percent viability for AAAAGUAAUCACUGUUUUUGCC [hsa-miR-548y] , tested with MCF10A.
[reply] 73.4

* * *

system: MCF10A; assay: percent viability (nuclei count relative to siNT); higher = more viable cells; conditions: 20 nM; 72 h
# Lookup of reported percent viability keyed by entry
The figure you give is taken to be in %; do not add the unit.

Here's what some known entries look like.
item_sequence	percent viability / %
GCAGCAGGGUGAAACUGACACA [hsa-miR-761]	56.9
UCAGAUGAUCUAAAGGCCUAUA [hsa-miR-1245b-3p]	34.5
UACAGAUGCAGAUUCUCUGACUUC [hsa-miR-5683]	40.9
UGGCCCGGCGACGUCUCACGGUC [hsa-miR-4745-3p]	58.7
GUGAGUGUGGAUCCUGGAGGAAU [hsa-miR-4658]	52.7
CUUGAGUCGUGCCUUUCUGAAUG [hsa-miR-8081]	95.5
GAGGGCAGCGUGGGUGUGGCGGA [hsa-miR-4632-5p]	64.3
AGCUCUAGAAAGAUUGUUGACC [hsa-miR-6502-5p]	93.5
UGCUUAACCUUGCCCUCGAAA [hsa-miR-4804-3p]	49.2
UGGAAGGAGGUUGCCGGACGCU [hsa-miR-4533]	46.4

[ask] Sample CCGGUUCCAGUCCCUGGAG [hsa-miR-6070] — what was its percent viability?
[reply] 55.6

[ask] Sample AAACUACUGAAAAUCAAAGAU [hsa-miR-606] — what was its percent viability?
[reply] 133
